assay: Ex vivo biodistribution in mice with U266 tumor xenografts; conditions: both sexes, NSG, mouse, femur, 50 µCi; 60 min p.i.; U266 xenograft mice; read-out: uptake in femur
MEASUREMENT_LABEL: tissue uptake at 1 h (%ID/g)
// note: answer is a bare numeric in %ID/g

[ask] Recall and state the measured tissue uptake at 1 h for CC[C@H](C)[C@@H]1NC(=O)[C@@H]2CCCN2C(=O)[C@H](Cc2ccccc2)NC(=O)[C@H](CC(=O)O)NC(=O)[C@H](C)NC(=O)[C@@H]2CSCc3cc(cc(c3)CSC[C@H](NC(=O)[C@H](C)NC(=O)CCOCCOCCOCCNC(=O)CN3CCN(CC(=O)O)CCN(CC(=O)O)CC3)C(=O)N[C@@H](C(C)C)C(=O)N3CCC[C@H]3C(=O)N2)CSC[C@@H](C(N)=O)NC(=O)[C@H](Cc2ccc(O)cc2)NC(=O)[C@H](Cc2c[nH]c3ccccc23)NC1=O [[^68Ga]Ga‐AJ206, metal not drawn] .
[reply] 0.13

* * *

test: Ex vivo biodistribution in mice with MM1S tumor xenografts; settings: both sexes, NSG, mouse, spleen, 2 mg/kg, 60 min p.i.; MM1S xenograft mice with blocking dose (2 mg kg^−1 AJ206); read-out: uptake in spleen
MEASUREMENT_LABEL: tissue uptake at 1 h

[ask] Recall and state the measured tissue uptake at 1 h for CC[C@H](C)[C@@H]1NC(=O)[C@@H]2CCCN2C(=O)[C@H](Cc2ccccc2)NC(=O)[C@H](CC(=O)O)NC(=O)[C@H](C)NC(=O)[C@@H]2CSCc3cc(cc(c3)CSC[C@H](NC(=O)[C@H](C)NC(=O)CCOCCOCCOCCNC(=O)CN3CCN(CC(=O)O)CCN(CC(=O)O)CC3)C(=O)N[C@@H](C(C)C)C(=O)N3CCC[C@H]3C(=O)N2)CSC[C@@H](C(N)=O)NC(=O)[C@H](Cc2ccc(O)cc2)NC(=O)[C@H](Cc2c[nH]c3ccccc23)NC1=O [[^68Ga]Ga‐AJ206, metal not drawn] .
[reply] 0.9 %ID/g

* * *

test: Ex vivo biodistribution in mice with U266 tumor xenografts; conditions: both sexes, NSG, mouse, small intestine, 50 µCi; 60 min p.i.; U266 xenograft mice; read-out: uptake in small intestine
MEASUREMENT_LABEL: tissue uptake at 1 h (%ID/g)
// note: answer is a bare numeric in %ID/g

[ask] Recall and state the measured tissue uptake at 1 h for CC[C@H](C)[C@@H]1NC(=O)[C@@H]2CCCN2C(=O)[C@H](Cc2ccccc2)NC(=O)[C@H](CC(=O)O)NC(=O)[C@H](C)NC(=O)[C@@H]2CSCc3cc(cc(c3)CSC[C@H](NC(=O)[C@H](C)NC(=O)CCOCCOCCOCCNC(=O)CN3CCN(CC(=O)O)CCN(CC(=O)O)CC3)C(=O)N[C@@H](C(C)C)C(=O)N3CCC[C@H]3C(=O)N2)CSC[C@@H](C(N)=O)NC(=O)[C@H](Cc2ccc(O)cc2)NC(=O)[C@H](Cc2c[nH]c3ccccc23)NC1=O [[^68Ga]Ga‐AJ206, metal not drawn] .
[reply] 0.16

* * *

experiment: Ex vivo biodistribution in mice with MM1S tumor xenografts; conditions: both sexes, NSG, mouse, thymus, 80 µCi, total radioactivity, 90 min p.i.; MM1S xenograft mice; read-out: uptake in thymus
MEASUREMENT_LABEL: tissue uptake at 1.5 h (%ID/g)
// note: answer is a bare numeric in %ID/g

[ask] Recall and state the measured tissue uptake at 1.5 h for CC[C@H](C)[C@@H]1NC(=O)[C@@H]2CCCN2C(=O)[C@H](Cc2ccccc2)NC(=O)[C@H](CC(=O)O)NC(=O)[C@H](C)NC(=O)[C@@H]2CSCc3cc(cc(c3)CSC[C@H](NC(=O)[C@H](C)NC(=O)CCOCCOCCOCCNC(=O)CN3CCN(CC(=O)O)CCN(CC(=O)O)CC3)C(=O)N[C@@H](C(C)C)C(=O)N3CCC[C@H]3C(=O)N2)CSC[C@@H](C(N)=O)NC(=O)[C@H](Cc2ccc(O)cc2)NC(=O)[C@H](Cc2c[nH]c3ccccc23)NC1=O [[^68Ga]Ga‐AJ206, metal not drawn] .
[reply] 0.84

* * *

Assay: Ex vivo biodistribution in mice with MM1S tumor xenografts
Conditions: both sexes, NSG, mouse, muscle, 80 µCi, total radioactivity, 120 min p.i.; MM1S xenograft mice; read-out: uptake in muscle
Protocol: […] Mice with 100–200 mm^3 tumor volume were used for ex vivo biodistribution studies. For radiotracer pharmacokinetics studies, mice with MOLP8 tumor xenografts received ≈80 µCi (2.96 MBq) [^68Ga]Ga‐AJ206 and were sacrificed at pre‐determined time points (5, 30, 60 and 120 min). Similarly, for dosimetry study, mice with MM1S tumor xenografts received ≈80 µCi (2.96 MBq) of [^68Ga]Ga‐AJ206 and were sacrificed at pre‐determined time points (5, 30, 60, 90 and 120 min). […]
MEASUREMENT_LABEL: tissue uptake at 2 h

[ask] Recall and state the measured tissue uptake at 2 h for CC[C@H](C)[C@@H]1NC(=O)[C@@H]2CCCN2C(=O)[C@H](Cc2ccccc2)NC(=O)[C@H](CC(=O)O)NC(=O)[C@H](C)NC(=O)[C@@H]2CSCc3cc(cc(c3)CSC[C@H](NC(=O)[C@H](C)NC(=O)CCOCCOCCOCCNC(=O)CN3CCN(CC(=O)O)CCN(CC(=O)O)CC3)C(=O)N[C@@H](C(C)C)C(=O)N3CCC[C@H]3C(=O)N2)CSC[C@@H](C(N)=O)NC(=O)[C@H](Cc2ccc(O)cc2)NC(=O)[C@H](Cc2c[nH]c3ccccc23)NC1=O [[^68Ga]Ga‐AJ206, metal not drawn] .
[reply] 0.09 %ID/g

* * *

assay: Ex vivo biodistribution in mice with RPMI tumor xenografts; conditions: both sexes, NSG, mouse, kidney, 50 µCi, 60 min p.i.; RPMI xenograft mice; read-out: uptake in kidney
MEASUREMENT_LABEL: tissue uptake at 1 h (%ID/g)
// note: answer is a bare numeric in %ID/g

[ask] Recall and state the measured tissue uptake at 1 h for CC[C@H](C)[C@@H]1NC(=O)[C@@H]2CCCN2C(=O)[C@H](Cc2ccccc2)NC(=O)[C@H](CC(=O)O)NC(=O)[C@H](C)NC(=O)[C@@H]2CSCc3cc(cc(c3)CSC[C@H](NC(=O)[C@H](C)NC(=O)CCOCCOCCOCCNC(=O)CN3CCN(CC(=O)O)CCN(CC(=O)O)CC3)C(=O)N[C@@H](C(C)C)C(=O)N3CCC[C@H]3C(=O)N2)CSC[C@@H](C(N)=O)NC(=O)[C@H](Cc2ccc(O)cc2)NC(=O)[C@H](Cc2c[nH]c3ccccc23)NC1=O [[^68Ga]Ga‐AJ206, metal not drawn] .
[reply] 17.8

* * *

assay: Ex vivo biodistribution in mice with RPMI tumor xenografts; conditions: both sexes, NSG, mouse, tumor, 50 µCi, 60 min p.i.; RPMI xenograft mice; read-out: uptake in tumor
MEASUREMENT_LABEL: tissue uptake at 1 h (%ID/g)
// note: answer is a bare numeric in %ID/g

[ask] Recall and state the measured tissue uptake at 1 h for CC[C@H](C)[C@@H]1NC(=O)[C@@H]2CCCN2C(=O)[C@H](Cc2ccccc2)NC(=O)[C@H](CC(=O)O)NC(=O)[C@H](C)NC(=O)[C@@H]2CSCc3cc(cc(c3)CSC[C@H](NC(=O)[C@H](C)NC(=O)CCOCCOCCOCCNC(=O)CN3CCN(CC(=O)O)CCN(CC(=O)O)CC3)C(=O)N[C@@H](C(C)C)C(=O)N3CCC[C@H]3C(=O)N2)CSC[C@@H](C(N)=O)NC(=O)[C@H](Cc2ccc(O)cc2)NC(=O)[C@H](Cc2c[nH]c3ccccc23)NC1=O [[^68Ga]Ga‐AJ206, metal not drawn] .
[reply] 1.78

* * *

assay: Ex vivo biodistribution in mice with MM1S tumor xenografts; details: both sexes, NSG, mouse, liver, 80 µCi, total radioactivity, 30 min p.i.; MM1S xenograft mice; read-out: uptake in liver
MEASUREMENT_LABEL: tissue uptake at 0.5 h (%ID/g)
// note: answer is a bare numeric in %ID/g

[ask] Recall and state the measured tissue uptake at 0.5 h for CC[C@H](C)[C@@H]1NC(=O)[C@@H]2CCCN2C(=O)[C@H](Cc2ccccc2)NC(=O)[C@H](CC(=O)O)NC(=O)[C@H](C)NC(=O)[C@@H]2CSCc3cc(cc(c3)CSC[C@H](NC(=O)[C@H](C)NC(=O)CCOCCOCCOCCNC(=O)CN3CCN(CC(=O)O)CCN(CC(=O)O)CC3)C(=O)N[C@@H](C(C)C)C(=O)N3CCC[C@H]3C(=O)N2)CSC[C@@H](C(N)=O)NC(=O)[C@H](Cc2ccc(O)cc2)NC(=O)[C@H](Cc2c[nH]c3ccccc23)NC1=O [[^68Ga]Ga‐AJ206, metal not drawn] .
[reply] 3.64

* * *

experiment: Ex vivo biodistribution in mice with MM1S tumor xenografts; details: both sexes, NSG, mouse, blood, 2 mg/kg, 60 min p.i.; MM1S xenograft mice with blocking dose (2 mg kg^−1 AJ206); read-out: uptake in blood
MEASUREMENT_LABEL: tissue uptake at 1 h (%ID/g)
// note: answer is a bare numeric in %ID/g

[ask] Recall and state the measured tissue uptake at 1 h for CC[C@H](C)[C@@H]1NC(=O)[C@@H]2CCCN2C(=O)[C@H](Cc2ccccc2)NC(=O)[C@H](CC(=O)O)NC(=O)[C@H](C)NC(=O)[C@@H]2CSCc3cc(cc(c3)CSC[C@H](NC(=O)[C@H](C)NC(=O)CCOCCOCCOCCNC(=O)CN3CCN(CC(=O)O)CCN(CC(=O)O)CC3)C(=O)N[C@@H](C(C)C)C(=O)N3CCC[C@H]3C(=O)N2)CSC[C@@H](C(N)=O)NC(=O)[C@H](Cc2ccc(O)cc2)NC(=O)[C@H](Cc2c[nH]c3ccccc23)NC1=O [[^68Ga]Ga‐AJ206, metal not drawn] .
[reply] 2.17
